# assayTarget: Protein disulfide-isomerase A6 (Homo sapiens) (UniProt Q15084)
# Sequence (Q15084 whole entry, looked up): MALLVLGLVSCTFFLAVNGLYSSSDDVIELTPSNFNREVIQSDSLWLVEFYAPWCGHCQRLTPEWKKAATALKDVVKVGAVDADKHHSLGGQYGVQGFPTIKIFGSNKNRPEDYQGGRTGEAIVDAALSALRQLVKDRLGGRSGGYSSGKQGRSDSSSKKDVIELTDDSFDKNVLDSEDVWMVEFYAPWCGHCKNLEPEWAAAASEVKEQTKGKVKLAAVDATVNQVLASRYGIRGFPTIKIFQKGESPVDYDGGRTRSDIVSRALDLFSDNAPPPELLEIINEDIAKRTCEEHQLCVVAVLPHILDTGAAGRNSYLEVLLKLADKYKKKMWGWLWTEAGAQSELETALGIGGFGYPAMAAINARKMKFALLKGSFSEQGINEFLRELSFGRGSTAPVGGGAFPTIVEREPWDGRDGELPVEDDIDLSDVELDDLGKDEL
# test: inhibitors of ERp5-driven insulin aggregation, primary screen, biochemical, turbidity, absorbance 650 nm, single point (AID 651711)
# experimentalSetup: 90 min, at 9.99 µM
About 180 (0.051%) of roughly 350,000 compounds were called active.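 Rule for the calls: active = mean replicate inhibition above about 25%, with every replicate also reaching it (limit read from the data, passing the limit was not always enough); inconclusive = only one of those two criteria met; inactive = neither criterion met.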 This excerpt belongs to a sample that is enriched for actives.
Outcome codes: active, inactive

>>> classassignment("CCC(=O)N1CC(=O)N2[C@H](CO)[C@@H](c3ccc(-c4ccc(C(=O)N(C)C)cc4)cc3)[C@@H]2C1")
"inactive"
>>> classassignment("Cc1ccc(S(=O)(=O)Nc2ccc3c(c2)C(=O)N([C@@H](C)CO)C[C@H](C)[C@H](CN(C)C(=O)Nc2ccc(C(F)(F)F)cc2)O3)cc1")
"inactive"
>>> classassignment("Cc1ccc(S(=O)(=O)N(C)C[C@@H]2Oc3ccc(N(C)C)cc3C(=O)N([C@@H](C)CO)C[C@H]2C)cc1")
"inactive"
>>> classassignment("O=C(CC1CC1)N1[C@@H](CO)[C@@H](c2ccccc2)C12CN(S(=O)(=O)c1ccccc1)C2")
"inactive"
>>> classassignment("COc1ccc2c3c([nH]c2c1)[C@H](CO)N(Cc1ccccc1Cl)CC31CN(C(=O)C2CC2)C1")
"active"
>>> classassignment("C[C@@H]1CN([C@H](C)CO)C(=O)c2cc(NS(=O)(=O)c3ccc(F)cc3)ccc2O[C@@H]1CN(C)C(=O)Nc1cccc2ccccc12")
"inactive"
>>> classassignment("O=C(c1cccc(F)c1)N1CC[C@@H]2[C@@H](CO)Nc3ccc(C#Cc4cccc(F)c4)cc3[C@@H]21")
"inactive"
>>> classassignment("CC(C)NC(=O)Nc1ccc2c(c1)C(=O)N([C@H](C)CO)C[C@@H](C)[C@@H](CN(C)Cc1ccncc1)O2")
"inactive"
>>> classassignment("COCC(=O)N1C[C@@H]2[C@H](c3ccccc31)[C@@H](CO)N2C(=O)C1CC1")
"inactive"
>>> classassignment("COc1ccc2c3c([nH]c2c1)[C@@H](CO)N(Cc1ccccc1F)CC31CN(C(=O)C2CC2)C1")
"inactive"
>>> classassignment("Cc1noc(C)c1S(=O)(=O)N(C)C[C@H]1Oc2ccc(NC(=O)Nc3cccc4ccccc34)cc2CC(=O)N([C@@H](C)CO)C[C@H]1C")
"inactive"
>>> classassignment("C[C@@H]1CN([C@@H](C)CO)C(=O)CCCn2cc(nn2)CO[C@@H]1CN(C)Cc1ccccc1C(=O)O")
"inactive"
>>> classassignment("C[C@@H]1CN([C@H](C)CO)C(=O)c2cc(C#CCC3CCCC3)cnc2O[C@H]1CN(C)C(=O)c1cnccn1")
"inactive"
>>> classassignment("CCCNC(=O)N1C[C@H](C)[C@@H](OC)CN(C)C(=O)c2ccc(NC(=O)CC)cc2OC[C@@H]1C")
"inactive"
>>> classassignment("CO[C@H]1CN(C)C(=O)c2ccc(NC(=O)CC(F)(F)F)cc2OC[C@H](C)N(C(=O)C2CC2)C[C@H]1C")
"inactive"
>>> classassignment("C[C@@H]1CN([C@@H](C)CO)C(=O)Cc2cc(NS(=O)(=O)c3cccs3)ccc2O[C@H]1CN(C)S(=O)(=O)c1ccc(F)cc1")
"inactive"
>>> classassignment("COc1ccccc1C#Cc1cnc2c(c1)C(=O)N([C@@H](C)CO)C[C@@H](C)[C@@H](CN(C)C(=O)CN(C)C)O2")
"inactive"
>>> classassignment("COc1ccc(S(=O)(=O)Nc2ccc3c(c2)C(=O)N([C@@H](C)CO)C[C@H](C)[C@H](CN(C)Cc2ccc(C(=O)O)cc2)OCCCC[C@@H](C)O3)cc1")
"inactive"
>>> classassignment("COc1ccc(CN2C[C@@H](C)[C@H](OC)CN(C)C(=O)c3cc(NC(C)=O)ccc3OC[C@@H]2C)cc1")
"inactive"
>>> classassignment("C[C@@H]1CN([C@H](C)CO)C(=O)c2cc(NC(=O)CCCN(C)C)ccc2O[C@@H](C)CCCCO[C@@H]1CN(C)Cc1ccncc1")
"inactive"
>>> classassignment("O=S(=O)(c1ccccc1)N1CC[C@@H]2[C@@H](CO)Nc3ccc(C#Cc4cccc(F)c4)cc3[C@@H]21")
"inactive"
>>> classassignment("N#C[C@@H]1[C@H](c2ccccc2-c2ccc(F)cc2)[C@@H](CO)N1c1ncc(-c2ccccc2)s1")
"inactive"
>>> classassignment("C[C@@H]1CN([C@H](C)CO)C(=O)Cc2cc(NC(=O)Cc3cn(C)c4ccccc34)ccc2O[C@@H]1CN(C)Cc1ccc(C(F)(F)F)cc1")
"inactive"
>>> classassignment("CO[C@@H]1CN(C)C(=O)c2ccc(NC(=O)NC(C)C)cc2OC[C@@H](C)N(Cc2ccc(-c3ccccn3)cc2)C[C@H]1C")
"inactive"
>>> classassignment("COc1ccc(NC(=O)N(C)C[C@@H]2OCc3ccccc3-c3c(n(C)c4ccccc34)C(=O)N([C@H](C)CO)C[C@H]2C)cc1")
"inactive"
>>> classassignment("CN(C)CC(=O)N1[C@@H](CO)[C@H](c2ccccc2)C12CN(C(=O)c1cccc(F)c1)C2")
"inactive"
>>> classassignment("COCC#Cc1ccc([C@@H]2[C@@H](CO)N3C(=O)CN(C(=O)C4CCCC4)C[C@@H]23)cc1")
"inactive"
>>> classassignment("N#C[C@@H]1[C@H](c2ccccc2-c2ccccc2F)[C@@H](CO)N1C(=O)c1ccccn1")
"inactive"
>>> classassignment("C[C@@H]1CN([C@@H](C)CO)C(=O)c2cccc(NS(=O)(=O)c3ccc(F)cc3)c2O[C@@H]1CN(C)Cc1ccc(C(=O)O)cc1")
"inactive"
>>> classassignment("C[C@H](CO)N1C[C@H](C)[C@H](CN(C)S(=O)(=O)c2cccc(F)c2)OCc2cnnn2CCCC1=O")
"inactive"
